The reported numbers originate from ChEMBL document CHEMBL2093137.

# Tested on: Leishmania infantum
# PROTOCOL DETAILS: WHO-TDR: Leishmaniasis
# Format: functional, organism-based, Mus musculus
# TEST CONTEXT: Macrophage
ENDPOINT NAME: IC50

Here are 5 molecules together with their reported answers.
COc1ccc(CCC(=O)NCC(c2ccsc2)N2CCc3ccccc3C2)cc1 (stereo unspecified) ... > 12.6 µg/mL
CCOc1ccccc1C(=O)NCc1ccc2c(c1)cc(C)n2C ... > 9.67 µg/mL
COc1cccc(C(=O)Nc2nnc(-c3ccc4c(c3)CCCC4)o2)c1 ... 3.31 µg/mL
CC1(C)Cc2cccc(OCCCS(=O)(=O)NCc3cccs3)c2O1 ... > 11.4 µg/mL
Cc1ccc(C)c2sc(N(CCCn3ccnc3)C(=O)Cc3ccc(F)cc3)nc12 ... 4.46 µg/mL

Now let's try a different one.
Could you share which IC50 value was measured for O=C(CC1CCCC1)Nc1nc(CSCc2ccc(F)cc2)cs1 ?
> 10.9 µg/mL
